Reference for the values: ChEMBL document CHEMBL4229540

# assay.remarks: Metabolic stability in rat liver microsomes in presence of NADPH and UGT at 30 mins by UHPLC-TSQ mass spectrometer
# Format: ADME, microsome
# experimental.conditions: 0.5 h
Each item that follows carries a reported Stability.
All answers are understood in nM, so give the number only.

COc1cc(/C=C/C(=O)CC(=O)/C=C/c2ccc(O)c(OC)c2)ccc1O [CURCUMIN] :: 54.6
COc1ccccc1-n1ccnc1/C=C/C(=O)/C=C/c1nccn1-c1ccccc1OC :: 879.8
O=C(/C=C/c1nccn1-c1ccccc1)/C=C/c1nccn1-c1ccccc1 :: 84.5

Next item in the queue.
Identify the reported Stability for the following entry. CC(C)CCn1ccnc1/C=C/C(=O)/C=C/c1nccn1CCC(C)C
644.6
